The reported numbers originate from the supplement of paper PMC10065799.

target: Hck (UniProt P08631); assay: phosphorylation enrichment, bacterial display (enrichment ratio); higher = better substrate or ligand; peptides without Tyr show the background
Sequence (P08631 whole entry, looked up): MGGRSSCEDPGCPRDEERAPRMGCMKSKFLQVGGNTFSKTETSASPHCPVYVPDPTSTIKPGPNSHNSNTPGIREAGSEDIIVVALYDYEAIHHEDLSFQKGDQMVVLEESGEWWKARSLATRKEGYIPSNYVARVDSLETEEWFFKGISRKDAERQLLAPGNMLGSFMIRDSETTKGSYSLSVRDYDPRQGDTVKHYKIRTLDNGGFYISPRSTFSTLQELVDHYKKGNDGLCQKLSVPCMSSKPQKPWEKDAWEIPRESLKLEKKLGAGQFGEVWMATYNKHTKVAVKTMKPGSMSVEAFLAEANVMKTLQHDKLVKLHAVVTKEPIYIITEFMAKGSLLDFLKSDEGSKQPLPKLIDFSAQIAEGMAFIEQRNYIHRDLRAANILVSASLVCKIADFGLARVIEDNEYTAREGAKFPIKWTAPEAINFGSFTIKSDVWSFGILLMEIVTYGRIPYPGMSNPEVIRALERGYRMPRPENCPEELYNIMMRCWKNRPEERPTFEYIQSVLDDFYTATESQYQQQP

| SEQUENCE_CHAIN | TARGET_ENTITY | phosphorylation enrichment |
| --- | --- | --- |
| IGEGTYRQVYK [CDK13_Y716_G717R] | Hck (UniProt P08631) | 0.411 |
| TSPALYRLDLD [TRIL_Y352_A347T] | Hck (UniProt P08631) | 0.817 |
| VTPVMYTYDEY [COL10A1_Y623_G618V] | Hck (UniProt P08631) | 0.932 |
| PSELFYSKIGP [SMG1_Y2254_YF] | Hck (UniProt P08631) | 10.6 |
| TVETKYDNISR [SETDB2_Y477] | Hck (UniProt P08631) | 0.477 |
| TVNIRYLLFPS [SERAC1_Y548_S543T] | Hck (UniProt P08631) | 0.574 |
| CTTIFYNFMCN [TP53_Y234_H233Y_YF] | Hck (UniProt P08631) | 0.562 |

----------
biological target: c-Src SH2; assay: SH2 binding enrichment of the phosphorylated peptide, bacterial display (enrichment ratio); higher = better substrate or ligand; peptides without Tyr show the background;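 note: peptide library displayed on the E. coli surface as eCPX fusions, selected cells deep-sequenced, score is each peptide's frequency after selection divided by its frequency in the input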
Overview of recorded SH2 binding enrichment for various sequences

| SEQUENCE_CHAIN | SH2 binding enrichment |
| --- | --- |
| DLDFTYIFPNI [PTEN_Y27_L25F_YF] | 0.47 |
| GRQGIYKENER [GPR143_Y231_T232K] | 0.443 |
| FASALYRQRRS [FGF11_Y162_YF] | 0.516 |
| KQMEQYMSFHK [HCN1_Y417_V414M] | 0.576 |
| EQLQSYQVEII [KRT33A_Y268_A270V] | 0.457 |
| RLKAKYPAATG [GLI3_Y933_A934P] | 1.48 |
| PDDPNYSLVDD [PSTPIP2_Y323] | 1.42 |

----------
biological target: EPHB2 (UniProt P29323); experiment: phosphorylation enrichment, bacterial display (enrichment ratio); higher = better substrate or ligand; peptides without Tyr show the background
Sequence (P29323 whole entry, looked up): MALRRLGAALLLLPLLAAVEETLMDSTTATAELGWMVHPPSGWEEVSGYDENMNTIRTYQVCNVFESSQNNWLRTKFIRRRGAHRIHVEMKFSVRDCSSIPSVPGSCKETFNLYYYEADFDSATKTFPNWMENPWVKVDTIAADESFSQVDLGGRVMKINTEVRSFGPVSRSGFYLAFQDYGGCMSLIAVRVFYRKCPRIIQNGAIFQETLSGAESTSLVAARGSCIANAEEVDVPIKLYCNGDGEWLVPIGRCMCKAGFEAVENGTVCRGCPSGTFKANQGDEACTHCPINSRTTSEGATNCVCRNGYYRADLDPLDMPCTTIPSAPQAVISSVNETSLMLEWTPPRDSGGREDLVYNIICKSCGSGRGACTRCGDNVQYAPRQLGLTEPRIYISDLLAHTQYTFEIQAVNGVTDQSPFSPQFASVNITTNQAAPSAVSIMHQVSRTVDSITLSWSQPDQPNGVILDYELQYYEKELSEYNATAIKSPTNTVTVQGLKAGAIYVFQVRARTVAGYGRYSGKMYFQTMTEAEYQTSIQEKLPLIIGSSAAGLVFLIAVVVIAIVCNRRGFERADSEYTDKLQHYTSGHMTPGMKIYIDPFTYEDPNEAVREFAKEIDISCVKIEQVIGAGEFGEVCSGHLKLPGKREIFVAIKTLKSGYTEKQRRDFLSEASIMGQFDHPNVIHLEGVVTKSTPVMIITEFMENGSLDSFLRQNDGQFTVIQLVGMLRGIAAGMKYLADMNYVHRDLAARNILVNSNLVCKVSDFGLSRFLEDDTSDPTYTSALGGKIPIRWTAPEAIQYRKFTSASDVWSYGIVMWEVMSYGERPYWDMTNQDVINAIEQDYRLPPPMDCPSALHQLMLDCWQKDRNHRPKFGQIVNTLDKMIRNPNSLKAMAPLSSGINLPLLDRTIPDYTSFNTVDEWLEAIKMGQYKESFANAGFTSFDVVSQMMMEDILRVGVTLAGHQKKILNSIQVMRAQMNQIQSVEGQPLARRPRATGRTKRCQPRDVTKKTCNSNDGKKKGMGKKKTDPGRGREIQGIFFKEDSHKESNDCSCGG

| SEQUENCE_CHAIN | phosphorylation enrichment |
| --- | --- |
| GIFSGYDDAWD [POLR1C_Y36_N32I_YF] | 0.651 |
| ATHRSYDSDNP [MMUT_Y146_G145S] | 0.459 |
| LKALHYMAQTS [SACS_Y3367_V3369A] | 0.634 |
| FISLIYTNFEV [GSTP1_Y109_A114V_YF] | 0.903 |
| LLASRYDSPIN [ABLIM1_Y638] | 0.929 |
| RLNCIYFKDQT [RS1_Y165_W163C_YF] | 0.732 |
| LIQRNYKLTAQ [ALPK2_Y1975_A1978T] | 0.604 |
| MVIPNYSSWTE [UROC1_Y185_R188W] | 13.5 |
| NGRQCYSCRGN [PLAUR_Y217_K220R] | 0.319 |
| RKQQLYTAMEE [CCDC39_Y593] | 0.534 |
| LIHLHYIRKDF [BBS4_Y43_YF] | 1.01 |
| RCKNHYAAFSV [C1QTNF1_Y145_S143N] | 0.562 |
| PQGVRYIFTID [DCX_Y103_YF] | 0.524 |

----------
molecular target: Fes (UniProt P07332); assay: phosphorylation enrichment, bacterial display (enrichment ratio); higher = better substrate or ligand; peptides without Tyr show the background
Sequence (P07332 whole entry, looked up): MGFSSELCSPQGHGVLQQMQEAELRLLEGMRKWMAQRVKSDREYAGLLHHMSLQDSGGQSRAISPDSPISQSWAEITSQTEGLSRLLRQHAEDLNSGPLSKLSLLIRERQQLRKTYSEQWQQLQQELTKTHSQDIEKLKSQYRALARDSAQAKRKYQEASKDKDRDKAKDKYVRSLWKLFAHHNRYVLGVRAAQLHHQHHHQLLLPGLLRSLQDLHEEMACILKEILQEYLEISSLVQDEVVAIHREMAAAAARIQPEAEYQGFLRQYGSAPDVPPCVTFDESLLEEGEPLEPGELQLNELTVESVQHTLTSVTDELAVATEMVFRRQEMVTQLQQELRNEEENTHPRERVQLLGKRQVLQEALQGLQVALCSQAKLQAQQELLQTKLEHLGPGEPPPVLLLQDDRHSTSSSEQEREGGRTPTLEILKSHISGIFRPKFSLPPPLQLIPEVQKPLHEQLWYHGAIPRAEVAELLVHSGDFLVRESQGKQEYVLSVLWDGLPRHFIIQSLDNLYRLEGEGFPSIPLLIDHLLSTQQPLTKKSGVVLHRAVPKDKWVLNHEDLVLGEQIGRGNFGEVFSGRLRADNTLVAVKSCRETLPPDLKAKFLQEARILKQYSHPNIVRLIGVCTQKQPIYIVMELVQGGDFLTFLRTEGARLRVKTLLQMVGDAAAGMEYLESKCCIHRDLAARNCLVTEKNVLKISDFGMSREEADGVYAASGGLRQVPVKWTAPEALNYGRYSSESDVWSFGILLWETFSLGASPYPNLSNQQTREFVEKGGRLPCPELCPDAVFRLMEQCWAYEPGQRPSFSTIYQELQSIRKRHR
PROPERTY_NAME: phosphorylation enrichment

| SEQUENCE_CHAIN | RECORDED_RESULT |
| --- | --- |
| EADRKYEEVAH [TPM3_Y163_R168H] | 1.04 |
| CTTIHQNYMCN [TP53_Y234_Y234Q] | 0.917 |
| LNLKDYNLVGG [GNAQ_Y356_E355D] | 0.665 |
| LTSKPYAFTAR [NDUFS1_Y236] | 1.1 |
| EWQQTYTYDSG [JUP_Y20] | 1.02 |
| ASKEPYFVHCI [MYO1D_Y585_R588H_YF] | 0.881 |
| KLQKKYGPIYS [CYP17A1_Y60] | 0.468 |

----------
target: FGFR3 (UniProt P22607); experiment: phosphorylation enrichment, bacterial display (enrichment ratio); higher = better substrate or ligand; peptides without Tyr show the background
Sequence (P22607 whole entry, looked up): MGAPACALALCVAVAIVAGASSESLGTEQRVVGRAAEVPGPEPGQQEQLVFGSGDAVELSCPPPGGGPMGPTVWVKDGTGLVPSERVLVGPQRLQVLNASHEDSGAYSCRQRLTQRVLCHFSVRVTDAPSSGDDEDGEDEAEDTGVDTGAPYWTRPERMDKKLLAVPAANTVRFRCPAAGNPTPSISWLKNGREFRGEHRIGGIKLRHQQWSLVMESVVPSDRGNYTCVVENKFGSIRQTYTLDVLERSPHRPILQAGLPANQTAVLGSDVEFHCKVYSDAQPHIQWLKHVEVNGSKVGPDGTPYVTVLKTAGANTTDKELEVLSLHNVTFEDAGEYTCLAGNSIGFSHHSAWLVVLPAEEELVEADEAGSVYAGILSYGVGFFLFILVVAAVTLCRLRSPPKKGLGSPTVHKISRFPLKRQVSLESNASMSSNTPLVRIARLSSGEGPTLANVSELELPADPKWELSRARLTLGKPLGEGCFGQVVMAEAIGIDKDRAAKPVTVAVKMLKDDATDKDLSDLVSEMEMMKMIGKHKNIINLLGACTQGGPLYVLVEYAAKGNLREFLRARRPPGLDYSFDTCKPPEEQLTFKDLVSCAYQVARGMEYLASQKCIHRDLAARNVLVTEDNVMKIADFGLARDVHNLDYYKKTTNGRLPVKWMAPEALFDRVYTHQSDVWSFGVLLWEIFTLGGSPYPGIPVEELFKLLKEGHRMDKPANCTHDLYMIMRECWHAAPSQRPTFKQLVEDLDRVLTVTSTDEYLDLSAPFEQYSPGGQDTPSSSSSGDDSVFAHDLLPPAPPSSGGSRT

| SEQUENCE_CHAIN | phosphorylation enrichment |
| --- | --- |
| CEHRGHLFLAI [TEK_Y897_Y897H_YF] | 0.908 |
| RLPINYTTRRI [LAMA2_Y2894_G2889R] | 0.839 |
| DLLNSYIENEG [HSPA4L_Y600] | 0.875 |
| VFFFSYLLKNH [PTEN_Y180_YF] | 0.729 |
| KGPGEYVNIEF [IRS1_Y896_S892G] | 1.14 |
| RHFSSYSQMEN [PKP1_Y120_R116H] | 0.688 |
| MARDISRASYY [ALK_Y1278_Y1278S] | 0.452 |
| PDDPNYSLVDD [PSTPIP2_Y323] | 1.31 |
| SVVVCYEPPEV [TP53_Y220_P219C] | 0.78 |
| PLRANYLIARV [HLCS_Y635_D634N] | 0.853 |
| PVDNLYAEPAV [PRPS1_Y146] | 0.986 |
| GREEFYSTHPH [LRRK2_Y1402] | 0.465 |
| FVPSNYVAEDR [FRK_Y104_I100V_YF] | 0.662 |
| AQPHTYEEPGR [EPHA8_Y616_E612Q] | 0.46 |
| ISKTWYSAEQF [CD207_Y217_P213S] | 0.757 |
| YGMQLYQNYMH [GRB14_Y347] | 0.909 |
| KDHPDYKFPPR [SOX10_Y171_Q174P_YF] | 0.762 |
| ADAHHYLCKEV [JAK2_Y382] | 0.554 |
| CKLYQYYLDHL [ATRX_Y1849] | 1.54 |
| MSGDVYSTDFF [NTRK2_Y702_R699G_YF] | 1.18 |
| KAWTIYRPEDS [ZBP1_Y165] | 0.643 |
| IAINKYEVSLI [MYO7A_Y2136_G2137E] | 0.635 |
| WVYNHYRWFIW [BRCA2_Y2624_I2627F] | 0.667 |
| SSNLFYRCLTA [CNGA3_Y169_W171C_YF] | 0.742 |
| THLARYSDELR [APOA1_Y190_P189R] | 0.449 |
| EKMWSYMKSAE [GRIA3_Y705] | 0.75 |
| ALETLYKKAVK [CC2D2A_Y381_E376A] | 0.475 |
| SGPRRYTIAAL [TTR_Y125] | 0.419 |
| PSSNLYYRCLT [CNGA3_Y168_W171C] | 1.87 |
| KLLLKYSFHDV [RNF213_Y4141] | 0.808 |
| TVDASYYGGRG [ANTXR2_Y380] | 0.561 |
| EAAFVYVISSA [WNT4_Y113_A114V] | 1.09 |
| PRARTYCYKQE [KLHDC9_Y175_S171R] | 0.557 |
| DFPGIYSGFDD [POLR1C_Y33_N32I_YF] | 0.768 |
| ENELTYFCFKK [CD59_Y86_C89Y_YF] | 1.29 |
| SHEELYKWFTS [DYNC1H1_Y3051] | 3.6 |
| YARECYSALPQ [SARS2_Y52_G51C] | 1.57 |
| KLGDVYVNDAF [PGK1_Y161] | 0.63 |
| DFLEKYFKFGS [NNMT_Y24_YF] | 0.826 |
| TKFVAYIESQG [KDM4B_Y34_N29T_YF] | 0.685 |
| GHRPVYSEDEQ [CHST6_Y362_Y358H] | 0.707 |
| FCRHNYGVVES [HLA-DRB1_Y112_YF] | 0.661 |
| AGQEEYSAMRD [HRAS_Y64] | 0.591 |
| KSIQLYDTPYE [SHB_Y297_G293S] | 0.643 |
| RRIYSYRGHLW [VHL_Y112_H110Y] | 0.725 |
| SSWPDYVRPLP [HSPB1_Y54_G53D] | 1.6 |
| CKLVDYDSARH [BIN1_Y150_R145C] | 0.624 |
| QLPRGYISILV [BAG3_Y205_P209L] | 0.748 |
| IIRRLYLKWHP [SACS_Y4333] | 0.596 |
| LARDMHDKEYY [MET_Y1230_Y1230H] | 0.589 |
| SDVDLYQVRIA [PSMD9_Y70_T74I] | 0.583 |
| KHCEDYVFSYN [DSC1_Y846_C848F] | 1.98 |
| YRNKPYISWPS [CDC42BPB_Y1638_S1633Y] | 0.46 |
| AFLEDYFTSTE [SRC_Y522] | 1.42 |
| PKGWNYELPAT [PROM1_Y34_A31G] | 0.592 |
| VMLENYSNLLS [ZFP69_Y109_V113L] | 0.586 |
| RENGPYYTSYP [GDAP2_Y487] | 3.32 |
